Each item that follows carries a reported scaled lipid accumulation score.
Tested on: primary human hepatic stellate cells (donor 1)
MEASUREMENT_DESCRIPTION: scaled lipid accumulation score (0 = DMSO-like, 1 = nortriptyline-like); higher = stronger HSC inactivation (lipid re-accumulation), active = hit call of the paper
ASSAY_CONDITIONS: library stock concentration: 10 mM; 48 h
Structures can show the parent of a compound that is named as a salt. About 620 (11%) of roughly 5,800 compounds showed activity. For the sample, actives were picked, then their nearest neighbours and some compounds at random.

Sample records with scaled lipid accumulation score:
C=CC(=O)Nc1cc2c(Nc3ccc(F)c(Cl)c3)ncnc2cc1OCCCN1CCOCC1
0.314 (inactive)
CNC(=O)c1cc(Oc2ccc(NC(=O)Nc3ccc(Cl)c(C(F)(F)F)c3)cc2)ccn1 [Sorafenib Tosylate]
≤ 0 (inactive)
COc1cc2ncnc(Nc3ccc(F)c(Cl)c3)c2cc1OCCCN1CCOCC1 [Gefitinib (ZD1839, Iressa) (10 mM)]
0.94 (active)
O=C(c1cccnc1)N1CCOCC1
0.163 (inactive)
CSc1cccc(Nc2ncc3cc(-c4c(Cl)cccc4Cl)c(=O)n(C)c3n2)c1
0.591 (inactive)

I am curious: what scaled lipid accumulation score value has been reported for CNC(=O)c1cc(Oc2ccc(NC(=O)Nc3ccc(Cl)c(C(F)(F)F)c3)cc2)ccn1 ?
0.672 (inactive)

Please answer likewise for CNC(=O)c1cc(Oc2ccc(NC(=O)Nc3ccc(Cl)c(C(F)(F)F)c3)c(F)c2)ccn1 [Regorafenib (BAY 73-4506)]
≤ 0 (inactive)

Same thing, different compound: COc1ccc(S(=O)(=O)N(CCO)c2ccccc2CN(C)CC=Cc2ccc(Cl)cc2)cc1.O=P(=O)OO.[H] [KN-93 Phosphate]
1.07 (active)

---

System: primary human hepatic stellate cells (donor 1)
MEASUREMENT_DESCRIPTION: scaled lipid accumulation score (0 = DMSO-like, 1 = nortriptyline-like); higher = stronger HSC inactivation (lipid re-accumulation), active = hit call of the paper
ASSAY_CONDITIONS: library stock concentration: 10 mM; 48 h
Hit rate of the full screen: of about 5,800 compounds, about 620 (11%) showed activity. What follows is part of a selection rich in actives, with near analogues and random picks from the rest.
ASSAY_READOUT: scaled lipid accumulation score

CN1CCN(C2=Nc3ccccc3Oc3ccc(Cl)cc32)CC1 [Loxapine Succinate]
0.493 (inactive)
CC(=O)Nc1nc2c(Oc3cc(-c4ccc(C(F)(F)F)cc4)ncn3)cccc2s1
0.221 (inactive)
COc1ccc2c3n(c(=NC(=O)c4cccnc4)nc2c1OC)CCN3
≤ -0.005 (inactive)

# get_value(readout= scaled lipid accumulation score, system= primary human hepatic stellate cells (donor 1)) for CCC(C)n1ncn(-c2ccc(N3CCN(c4ccc(OCC5COC(Cn6cncn6)(c6ccc(Cl)cc6Cl)O5)cc4)CC3)cc2)c1=O (stereo not drawn)
0.522 (inactive)

Queued: C=C1CC2(O)OC3(CC2C(C)C)C(C)CCC13 (stereo not drawn)
≤ 0 (inactive)

Same lookup for CN(C)c1cnccn1 , please.
≤ 0 (inactive)

Moving on to the next molecule: O=C[C@H](O)[C@@H](O)[C@H](O)CO
0.028 (inactive)

Same for O=NN(CCCl)C(=O)NCCCl
≤ 0 (inactive)

---

Tested on: primary human hepatic stellate cells (donor 1)
MEASUREMENT_DESCRIPTION: scaled lipid accumulation score (0 = DMSO-like, 1 = nortriptyline-like); higher = stronger HSC inactivation (lipid re-accumulation), active = hit call of the paper
ASSAY_CONDITIONS: library stock concentration: 1 mM; 48 h
In all, about 5,800 compounds went through this assay and about 620 (11%) showed activity. What follows is part of a selection rich in actives, with near analogues and random picks from the rest.
ASSAY_READOUT: scaled lipid accumulation score

Recorded results for 5 compounds are shown here.
CCCCC[C@H](O)/C=C/[C@@H]1[C@H]2C[C@@H](CCCCC(=O)O)O[C@H]2C[C@H]1O
0.002 (inactive)
CCCCCCCC/C=C\C/C=C\C/C=C\CCCC(=O)NCCO [Mead ethanolamide]
0.017 (inactive)
CCCCCCCCCCCCCCCCCC(=O)N[C@H]1CCOC1=O
≤ 0 (inactive)
C#CCOc1ccccc1CCCCCC(=O)NS(C)(=O)=O
0.013 (inactive)
CCCCCCCCCCCCCCCC(=O)OCC(COP(=O)(O)O)OC(=O)CCCCCCCCCCCCCCC (configuration not stated)
≤ -0.021 (inactive)

Under primary human hepatic stellate cells (donor 1): scaled lipid accumulation score value of O=C(O)CCC/C=C\C[C@@H]1[C@@H](CC[C@@H](O)CCc2cccc(C(F)(F)F)c2)[C@H](O)C[C@@H]1O ?
≤ 0 (inactive)

Follow-up item: CCCCCC(=O)OC[C@H](CO)OC(=O)CCCCC
0.007 (inactive)
